System: PC-3 prostate
ASSAY_METHOD_TEXT: NCI-60 one-dose screen, 48 h (100 = growth as untreated, 0 = no growth, -100 = all killed)
RUN_CONDITIONS: 10 µM unless noted
This is part of a sample that, as a whole, favours compounds with a hit. Of some 83,000 tested, about 20% had one in any assay. Active and inactive are the calls of the source. The calls were made as follows: active = growth percent below 10; inactive = the rest.
Answer each item with its documented growth.

So, C=CCOC(=O)C1=C(C)NC2=C(C(=O)CCC2)C1c1ccc(F)cc1 (stereo unspecified) ? Its growth was 90.1% (inactive)

So, O=C(CCl)Nc1cc(O)c2c(c1)C(=O)c1cccc(O)c1C2=O ? Its growth was -63.6% (active)

So, CC(C)=CC[C@@H]1CC2(CC=C(C)C)C(=O)C(OC3(C(=O)c4ccccc4)C(=O)C4(CC=C(C)C)C[C@@H](CC=C(C)C)C(C)(C)C(CC=C(C)C)(C4=O)C3=O)(C(=O)c3ccccc3)C(=O)C(CC=C(C)C)(C2=O)C1(C)C (stereo partly specified) ? Its growth was -17.3% (active)

So, COc1cc(OC)c2sc(-c3ccc(-n4cncc4-c4ccc(OC)c(N)c4)cc3)nc2c1 ? Its growth was 50.4% (inactive)

So, Cc1ccc(C)c2c1SC1=NNC(Oc3ccc(Cl)cc3)=C(C#N)C(=N)N12 ? Its growth was 85% (inactive)

So, O=C(/C=C/c1ccco1)c1ccccc1O ? Its growth was 95.9% (inactive)

So, CC(=O)N1N=C(C2C(=O)N(C)C(=O)N(C)C2=O)CC1c1ccccc1C(=O)O (stereo unspecified) ? Its growth was 95.4% (inactive)

So, O=C1/C=C/[C@@H](O)[C@@H]2C[C@@H](O)C[C@H]2/C=C/CCC[C@H]([C@@H](O)CO)O1 ? Its growth was 88.7% (inactive)

So, Nc1c(Br)cc2c(c1Br)Cc1cc(Cl)ccc1-2 ? Its growth was 82.6% (inactive)

So, Cn1cnc([N+](=O)[O-])c1S(=O)(=O)Oc1ccccc1 ? Its growth was 86.5% (inactive)

So, CCCCCCCCCCCC1=NC(C)(C)CN1CC(C)O (stereo unspecified) ? Its growth was 51.4% (inactive)

So, COc1cccc(-c2cc(-c3cccs3)c(C#N)c(=O)[nH]2)c1 ? Its growth was 103% (inactive)

So, Oc1ccc(-c2nnc3c4[nH]ccc4ncn23)cc1 ? Its growth was 94.3% (inactive)

So, CC[C@H](C)[C@H](N)C(=O)O ? Its growth was 99.1% (inactive)

So, CC1OC(n2c3ccccc3c3c4c(c5c6ccccc6[nH]c5c32)C(=O)N(CCN[C@H]2CCC[C@@H]2N)C4=O)CC(O)C1O (stereo partly specified) ? Its growth was 16.8% (inactive)

So, COc1ccc(/C=C(\C#N)c2cc(OC)c(OC)c(OC)c2)cc1 ? Its growth was 28% (inactive)

So, COc1cccc(NC(=O)OC(C)C)c1 ? Its growth was 93.5% (inactive)

So, Cc1nn(-c2cccc(Cl)c2)c(C)c1N=Nc1ccc(Br)cc1 ? Its growth was 80.9% (inactive)

So, NC(N)=N/N=C/c1ccc(Cl)cc1 ? Its growth was 84.8% (inactive)

So, O=C1NN(C(=O)c2ccccc2)C(c2ccc(Cl)c(Cl)c2)=C/C1=C\c1ccccc1[N+](=O)[O-] ? Its growth was 9.01% [6.75 µM] (active)

So, CN1C(=O)N(C)C2C1NN=c1s/c(=C\c3ccc(Br)cc3)c(=O)n12 (stereo unspecified) ? Its growth was 18.3% (inactive)

Origin of measurements: PubChem BioAssay (NCI)
